Listed compounds paired with reported pIC50
Tested on: HFL-1
Test Method Notes: Cytotoxicity against normal cell line HFL-1
Assay type: cell-based
Test Conditions: Homo sapiens, HFL1, 24 h, mean ± standard error
By convention, pIC50 is the negative base-10 log of a molar concentration.

Reference set, count: 4
{"Compound": "COc1ccc2ccc3c(c2c1)C(c1cc(OC)c(OC)c(OC)c1)C(C#N)=C(N)O3 (stereo not shown) [4y]", "pIC50": 4.47}
{"Compound": "COc1ccc2ccc3c(c2c1)C(c1ccccc1Br)C(C#N)=C(N)O3 (stereo not shown) [4e]", "pIC50": 4.31}
{"Compound": "COc1ccc2ccc3c(c2c1)C(c1cccc(Cl)c1)C(C#N)=C(N)O3 (stereo not shown) [4c]", "pIC50": 4.23}
{"Compound": "COc1ccc2ccc3c(c2c1)C(c1ccc(F)cc1F)C(C#N)=C(N)O3 (stereo not shown) [4k]", "pIC50": 4.22}

*Q* What pIC50 value was documented for this compound, COc1ccc2ccc3c(c2c1)C(c1ccc(F)cc1)C(C#N)=C(N)O3 (stereo not shown) [4a] ?
*A* 4.35

*Q* Endpoint output: pIC50 of COc1ccc2ccc3c(c2c1)C(c1cc(Br)cc(Br)c1OC)C(C#N)=C(N)O3 (stereo not shown) [4z] . Value?
*A* 4.48

*Q* Using the record for COc1ccc2ccc3c(c2c1)C(c1ccc(C(F)(F)F)cc1F)C(C#N)=C(N)O3 (stereo not shown) [4u] , report its pIC50.
*A* 4.26

*Q* Which pIC50 reading was recorded for the compound COc1ccc2ccc3c(c2c1)C(c1ccc(Br)cc1)C(C#N)=C(N)O3 (stereo not shown) [4g] ?
*A* 4.19

*Q* What does the record list as pIC50 for COc1ccc2ccc3c(c2c1)C(c1ccc(OC)c(OC)c1)C(C#N)=C(N)O3 (stereo not shown) [4w] ?
*A* 4.33

*Q* Tell me the measured pIC50 of COc1ccc2ccc3c(c2c1)C(c1ccc(Cl)c(Cl)c1)C(C#N)=C(N)O3 (stereo not shown) [4q] , please.
*A* 4.12
